Sourced from patent US20250129062A1

Assay: Solubility of amorphous substance in solvent systems (supersaturated solution, oscillated 24 h at room temperature, HPLC)
Assay type: physicochemical
Conditions: dehydrated alcohol 30%: water 70% (w/w), aqueous with cosolvent or surfactant or cyclodextrin, thermodynamic from solid, Dehydrated alcohol 30%: water 70% (w/w); read-out: 24 h solubility

# chemicalStructure, solubility at 24 h (µg/mL)
measured = [
    ("Cc1ncsc1-c1ccc(CNC(=O)[C@@H]2C[C@@H](O)CN2C(=O)[C@@H](NC(=O)COCCCCOc2ccc(-c3ccc(N4C(=S)N(c5ccc(C#N)c(C(F)(F)F)c5F)C(=O)C4(C)C)cn3)cc2)C(C)(C)C)cc1", 110),
]

----------
Assay: Solubility of amorphous substance in solvent systems (supersaturated solution, oscillated 24 h at room temperature, HPLC)
Assay type: physicochemical
Conditions: solvent mixture, aqueous with cosolvent or surfactant or cyclodextrin, thermodynamic from solid, Dehydrated alcohol 10%-glycerin 30%-water 60% (w/w); read-out: Solubility

# chemicalStructure, solubility at 24 h
rows = [
    ("Cc1ncsc1-c1ccc(CNC(=O)[C@@H]2C[C@@H](O)CN2C(=O)[C@@H](NC(=O)COCCCCOc2ccc(-c3ccc(N4C(=S)N(c5ccc(C#N)c(C(F)(F)F)c5F)C(=O)C4(C)C)cn3)cc2)C(C)(C)C)cc1", "< 100 µg/mL"),
]

----------
Test: Solubility of amorphous substance in solvent systems (supersaturated solution, oscillated 24 h at room temperature, HPLC)
Assay type: physicochemical
Settings: solvent mixture, aqueous with cosolvent or surfactant or cyclodextrin, thermodynamic from solid, Dehydrated alcohol 40%-glycerin 10%-water 50% (w/w); read-out: Solubility

# chemicalStructure, solubility at 24 h [µg/mL]
rows = [
    ("Cc1ncsc1-c1ccc(CNC(=O)[C@@H]2C[C@@H](O)CN2C(=O)[C@@H](NC(=O)COCCCCOc2ccc(-c3ccc(N4C(=S)N(c5ccc(C#N)c(C(F)(F)F)c5F)C(=O)C4(C)C)cn3)cc2)C(C)(C)C)cc1", 1580),
]

----------
Test: Solubility of amorphous substance in solvent systems (supersaturated solution, oscillated 24 h at room temperature, HPLC)
Type: physicochemical
Conditions: solvent mixture, aqueous with cosolvent or surfactant or cyclodextrin, thermodynamic from solid, Dehydrated alcohol 50%-PEG400 10%-water 40% (w/w); read-out: Solubility
Procedure: The amorphous substance of the compound of formula I was prepared into supersaturated solutions with different solvents, and oscillated under a room temperature condition (a constant temperature). After oscillating for 24 h, sampling was performed, and the content of the sample was detected by HPLC under condition 1. […]

# chemicalStructure, solubility at 24 h [mg/mL]
data = [
    ("Cc1ncsc1-c1ccc(CNC(=O)[C@@H]2C[C@@H](O)CN2C(=O)[C@@H](NC(=O)COCCCCOc2ccc(-c3ccc(N4C(=S)N(c5ccc(C#N)c(C(F)(F)F)c5F)C(=O)C4(C)C)cn3)cc2)C(C)(C)C)cc1", 25.1),
]

----------
Test: Solubility of amorphous substance in solvent systems (supersaturated solution, oscillated 24 h at room temperature, HPLC)
Assay type: physicochemical
Conditions: dehydrated alcohol-PEG400-water solvent mixture, aqueous with cosolvent or surfactant or cyclodextrin, thermodynamic from solid, Dehydrated alcohol 35%-PEG400 30%-water 35% (w/w); read-out: Solubility
endpoint: solubility at 24 h (mg/mL)

# chemicalStructure, measurement
data = [
    ("Cc1ncsc1-c1ccc(CNC(=O)[C@@H]2C[C@@H](O)CN2C(=O)[C@@H](NC(=O)COCCCCOc2ccc(-c3ccc(N4C(=S)N(c5ccc(C#N)c(C(F)(F)F)c5F)C(=O)C4(C)C)cn3)cc2)C(C)(C)C)cc1", 35.7),
]

----------
Assay: Distribution of compound in sebaceous glands and blood of golden hamsters after single skin application
Format: in vivo
Conditions: male, hamster, plasma, topical, 4 mg, male golden hamsters, skin application 4 mg, 0.5 h, individual animals No. 4, 5, 6; read-out: Concentration of compound of formula I in plasma

# compound, concentration at 0.5 h
records = [
    ("Cc1ncsc1-c1ccc(CNC(=O)[C@@H]2C[C@@H](O)CN2C(=O)[C@@H](NC(=O)COCCCCOc2ccc(-c3ccc(N4C(=S)N(c5ccc(C#N)c(C(F)(F)F)c5F)C(=O)C4(C)C)cn3)cc2)C(C)(C)C)cc1 [compound of formula I]", "< 0 ng/mL"),
]

----------
Test: Solubility of amorphous substance in solvent systems (supersaturated solution, oscillated 24 h at room temperature, HPLC)
Assay type: physicochemical
Conditions: liquid paraffin, oil or lipid, thermodynamic from solid, solvent: Liquid paraffin; read-out: 24 h solubility
endpoint: solubility at 24 h

# chemicalStructure, measurement
measured = [
    ("Cc1ncsc1-c1ccc(CNC(=O)[C@@H]2C[C@@H](O)CN2C(=O)[C@@H](NC(=O)COCCCCOc2ccc(-c3ccc(N4C(=S)N(c5ccc(C#N)c(C(F)(F)F)c5F)C(=O)C4(C)C)cn3)cc2)C(C)(C)C)cc1", "10 µg/mL"),
]

----------
Test: Solubility of amorphous substance in solvent systems (supersaturated solution, oscillated 24 h at room temperature, HPLC)
Type: physicochemical
Details: glycerin, organic solvent or mixture, thermodynamic from solid, solvent: Glycerin; read-out: 24 h solubility
endpoint: solubility at 24 h (µg/mL)

# chemicalStructure, measurement
data = [
    ("Cc1ncsc1-c1ccc(CNC(=O)[C@@H]2C[C@@H](O)CN2C(=O)[C@@H](NC(=O)COCCCCOc2ccc(-c3ccc(N4C(=S)N(c5ccc(C#N)c(C(F)(F)F)c5F)C(=O)C4(C)C)cn3)cc2)C(C)(C)C)cc1", 440),
]

----------
Experiment: Distribution of compound in sebaceous glands and blood of golden hamsters after single skin application
Assay type: in vivo
Conditions: male, hamster, right sebaceous gland, topical, 1.2 mg, Right sebaceous gland, dose 1.2 mg, 8 h, individual animals No. 1-3; read-out: Concentration in sebaceous glands
Method: 6 male golden hamsters were selected for the experiment, and randomly divided evenly into 2 groups, with three golden hamsters per group. All animals were fasted overnight before administration, and were administered via a route of single application. Sampling was performed at specific time points after administration. Specific information on animal grouping, administration, sampling, etc. were detailed in Table 6. […]

# compound, concentration at 8 h / ng/mL
rows = [
    ("Cc1ncsc1-c1ccc(CNC(=O)[C@@H]2C[C@@H](O)CN2C(=O)[C@@H](NC(=O)COCCCCOc2ccc(-c3ccc(N4C(=S)N(c5ccc(C#N)c(C(F)(F)F)c5F)C(=O)C4(C)C)cn3)cc2)C(C)(C)C)cc1 [compound of formula I]", 9170),
]

----------
Assay: Solubility of amorphous substance in solvent systems (supersaturated solution, oscillated 24 h at room temperature, HPLC)
Format: physicochemical
Conditions: dehydrated alcohol-PEG400-water solvent mixture, aqueous with cosolvent or surfactant or cyclodextrin, thermodynamic from solid, Dehydrated alcohol 30%-PEG400 30%-water 40% (w/w); read-out: Solubility
endpoint: solubility at 24 h (mg/mL)

# chemicalStructure, endpoint, measurement
rows = [
    ("Cc1ncsc1-c1ccc(CNC(=O)[C@@H]2C[C@@H](O)CN2C(=O)[C@@H](NC(=O)COCCCCOc2ccc(-c3ccc(N4C(=S)N(c5ccc(C#N)c(C(F)(F)F)c5F)C(=O)C4(C)C)cn3)cc2)C(C)(C)C)cc1", "solubility at 24 h", 11.6),
]

----------
Assay: Solubility of amorphous substance in solvent systems (supersaturated solution, oscillated 24 h at room temperature, HPLC)
Assay type: physicochemical
Conditions: solvent mixture, aqueous with cosolvent or surfactant or cyclodextrin, thermodynamic from solid, Dehydrated alcohol 50%-glycerin 10%-water 40% (w/w); read-out: Solubility
Experimental: The amorphous substance of the compound of formula I was prepared into supersaturated solutions with different solvents, and oscillated under a room temperature condition (a constant temperature). After oscillating for 24 h, sampling was performed, and the content of the sample was detected by HPLC under condition 1. […]

# chemicalStructure, solubility at 24 h (mg/mL)
records = [
    ("Cc1ncsc1-c1ccc(CNC(=O)[C@@H]2C[C@@H](O)CN2C(=O)[C@@H](NC(=O)COCCCCOc2ccc(-c3ccc(N4C(=S)N(c5ccc(C#N)c(C(F)(F)F)c5F)C(=O)C4(C)C)cn3)cc2)C(C)(C)C)cc1", 15.2),
]

----------
Assay: Solubility of amorphous substance in solvent systems (supersaturated solution, oscillated 24 h at room temperature, HPLC)
Type: physicochemical
Conditions: dehydrated alcohol-PEG400-water solvent mixture, aqueous with cosolvent or surfactant or cyclodextrin, thermodynamic from solid, Dehydrated alcohol 40%-PEG400 20%-water 40% (w/w); read-out: Solubility
endpoint: solubility at 24 h (mg/mL)

# chemicalStructure, endpoint, uom, measurement
records = [
    ("Cc1ncsc1-c1ccc(CNC(=O)[C@@H]2C[C@@H](O)CN2C(=O)[C@@H](NC(=O)COCCCCOc2ccc(-c3ccc(N4C(=S)N(c5ccc(C#N)c(C(F)(F)F)c5F)C(=O)C4(C)C)cn3)cc2)C(C)(C)C)cc1", "solubility at 24 h", "mg/mL", 17.4),
]

----------
Assay: Solubility of amorphous substance in solvent systems (supersaturated solution, oscillated 24 h at room temperature, HPLC)
Assay type: physicochemical
Conditions: dehydrated alcohol-propylene glycol-water solvent mixture, aqueous with cosolvent or surfactant or cyclodextrin, thermodynamic from solid, Dehydrated alcohol 40%-propylene glycol 30%-water 30% (w/w); read-out: Solubility
endpoint: solubility at 24 h (mg/mL)

# chemicalStructure, measurement
rows = [
    ("Cc1ncsc1-c1ccc(CNC(=O)[C@@H]2C[C@@H](O)CN2C(=O)[C@@H](NC(=O)COCCCCOc2ccc(-c3ccc(N4C(=S)N(c5ccc(C#N)c(C(F)(F)F)c5F)C(=O)C4(C)C)cn3)cc2)C(C)(C)C)cc1", 49.8),
]
